test: Tissue distribution of SHR9146 in mice after oral gavage of 40 mg/kg; type: in vivo, ICR mice; details: male, ICR, mouse, small intestine, po, 40 mg/kg, male, 3 h, 40 mg/kg oral gavage, Mean (n=3); read-out: SHR9146 concentration in Small intestine
assay-metric: concentration at 3 h

Supply reported concentration at 3 h belonging to this compound: OCCn1cc(-c2ccc(N3CCC([C@H]4c5c(F)cccc5-c5cncn54)CC3)cc2)cn1 [SHR9146]
6910 ng/g

====

assay: Tissue distribution of SHR9146 in mice after oral gavage of 40 mg/kg; format: in vivo, ICR mice; details: female, ICR, mouse, spleen, po, 40 mg/kg, female, 1 h, 40 mg/kg oral gavage, individual mice; read-out: SHR9146 concentration in Spleen
assay-metric: concentration at 1 h (ng/g)
Supply the numeric figure in ng/g, leaving out any unit text.

Item `OCCn1cc(-c2ccc(N3CCC([C@H]4c5c(F)cccc5-c5cncn54)CC3)cc2)cn1` : provide concentration at 1 h
6190

====

assay: Tissue distribution of SHR9146 in mice after oral gavage of 40 mg/kg; assay type: in vivo, ICR mice; details: female, ICR, mouse, uterus, po, 40 mg/kg, female, 1 h, 40 mg/kg oral gavage, individual mice; read-out: SHR9146 concentration in Uterus
assay-metric: concentration at 1 h (ng/g)
# unit: ng/g | format: bare number

Return concentration at 1 h for the following compound: `OCCn1cc(-c2ccc(N3CCC([C@H]4c5c(F)cccc5-c5cncn54)CC3)cc2)cn1`
9740

====

experiment: Tissue distribution of SHR9146 in mice after oral gavage of 40 mg/kg; format: in vivo, ICR mice; conditions: male, ICR, mouse, liver, po, 40 mg/kg, male, 1 h, 40 mg/kg oral gavage, individual mice; read-out: SHR9146 concentration in Liver
assay-metric: concentration at 1 h (ng/g)
Field: numeric (ng/g). Do not append units.

Find the measured concentration at 1 h of `OCCn1cc(-c2ccc(N3CCC([C@H]4c5c(F)cccc5-c5cncn54)CC3)cc2)cn1` and report it.
22000

====

test: Plasma pharmacokinetics of SHR9146 in mice (LC-MS/MS, non-compartmental analysis); assay type: in vivo, ICR mice; settings: both sexes, ICR, mouse, plasma, oral, 20 mg/kg, 20 mg/kg i.g. single; 2 h; read-out: plasma drug concentration, mean (n=6)
assay-metric: concentration at 2 h (ng/mL)
Report only the number, with the unit ng/mL understood.

Dear colleague, please send me the reported concentration at 2 h for `OCCn1cc(-c2ccc(N3CCC([C@H]4c5c(F)cccc5-c5cncn54)CC3)cc2)cn1` when you can.
3980

====

test: Plasma pharmacokinetics of SHR9146 in mice (LC-MS/MS, non-compartmental analysis); format: in vivo, ICR mice; conditions: both sexes, ICR, mouse, plasma, oral, 80 mg/kg, 80 mg/kg i.g. single; 8 h; read-out: plasma drug concentration, mean (n=6)
assay-metric: concentration at 8 h (ng/mL)
The answer is to be given in ng/mL; state only the numeric part.

Look up concentration at 8 h of OCCn1cc(-c2ccc(N3CCC([C@H]4c5c(F)cccc5-c5cncn54)CC3)cc2)cn1 [SHR9146] and report it.
1200

====

experiment: Plasma pharmacokinetics of SHR9146 in mice (LC-MS/MS, non-compartmental analysis); type: in vivo, ICR mice; settings: both sexes, ICR, mouse, plasma, po, 20 mg/kg, 20 mg/kg i.g. single dose; all mice (Totol, 3 male + 3 female); plasma; read-out: Cmax
assay-metric: Cmax (ng/mL)
Record the value in ng/mL, omitting the unit from your answer.

Provide measured Cmax value, entry: `OCCn1cc(-c2ccc(N3CCC([C@H]4c5c(F)cccc5-c5cncn54)CC3)cc2)cn1`
9610

====

experiment: Plasma pharmacokinetics of SHR9146 in mice (LC-MS/MS, non-compartmental analysis); type: in vivo, ICR mice; conditions: ICR, mouse, po; 80 mg/kg i.g. single dose; female mice; plasma; read-out: MRT0-∞
assay-metric: MRT inf (h)
Kindly provide the numeric value in h only, without the unit symbol.

Respond only with MRT inf recorded for `OCCn1cc(-c2ccc(N3CCC([C@H]4c5c(F)cccc5-c5cncn54)CC3)cc2)cn1`
3.29

====

assay: Plasma pharmacokinetics of SHR9146 in mice (LC-MS/MS, non-compartmental analysis); format: in vivo, ICR mice; conditions: female, ICR, mouse, plasma, po, 80 mg/kg, 80 mg/kg i.g. single dose; female mice; plasma; read-out: AUC0-t
assay-metric: AUC(0-t)
Answer as a quantity: numeral, then unit.

Read off the recorded AUC(0-t) for `OCCn1cc(-c2ccc(N3CCC([C@H]4c5c(F)cccc5-c5cncn54)CC3)cc2)cn1`
64700 ng·h/mL

====

assay: Plasma pharmacokinetics of SHR9146 in mice (LC-MS/MS, non-compartmental analysis); format: in vivo, ICR mice; conditions: female, ICR, mouse, plasma, po, 80 mg/kg, 80 mg/kg i.g. single dose; female mice; plasma; read-out: t1/2 (converted)
assay-metric: half-life
Just so you know, I need the unit written after the number.

Determine from records and report half-life for OCCn1cc(-c2ccc(N3CCC([C@H]4c5c(F)cccc5-c5cncn54)CC3)cc2)cn1 [SHR9146]
1.49 h

====

test: Tissue distribution of SHR9146 in mice after oral gavage of 40 mg/kg; type: in vivo, ICR mice; conditions: male, ICR, mouse, pancreas, po, 40 mg/kg, male, 3 h, 40 mg/kg oral gavage, Mean (n=3); read-out: SHR9146 concentration in Pancreas
assay-metric: concentration at 3 h

Read off the recorded concentration at 3 h for `OCCn1cc(-c2ccc(N3CCC([C@H]4c5c(F)cccc5-c5cncn54)CC3)cc2)cn1`
4870 ng/g

====

assay: Plasma pharmacokinetics of SHR9146 in mice (LC-MS/MS, non-compartmental analysis); type: in vivo, ICR mice; conditions: both sexes, ICR, mouse, plasma, oral, 80 mg/kg, 80 mg/kg i.g. single; 1 h; read-out: plasma drug concentration, mean (n=6)
assay-metric: concentration at 1 h
# do not omit the unit; it follows the number

Using known records, supply concentration at 1 h for `OCCn1cc(-c2ccc(N3CCC([C@H]4c5c(F)cccc5-c5cncn54)CC3)cc2)cn1`
12900 ng/mL

====

assay: Tissue distribution of SHR9146 in mice after oral gavage of 40 mg/kg; assay type: in vivo, ICR mice; conditions: female, ICR, mouse, lung, po, 40 mg/kg, female, 1 h, 40 mg/kg oral gavage, individual mice; read-out: SHR9146 concentration in Lung
assay-metric: concentration at 1 h
Write down the value, and be sure its unit follows.

Output measured concentration at 1 h for this item: `OCCn1cc(-c2ccc(N3CCC([C@H]4c5c(F)cccc5-c5cncn54)CC3)cc2)cn1`
13600 ng/g

====

experiment: Tissue distribution of SHR9146 in mice after oral gavage of 40 mg/kg; assay type: in vivo, ICR mice; conditions: male, ICR, mouse, lung, po, 40 mg/kg, male, 6 h, 40 mg/kg oral gavage, Mean (n=3); read-out: SHR9146 concentration in Lung
assay-metric: concentration at 6 h (ng/g)
Kindly provide the numeric value in ng/g only, without the unit symbol.

Please report the measured concentration at 6 h for `OCCn1cc(-c2ccc(N3CCC([C@H]4c5c(F)cccc5-c5cncn54)CC3)cc2)cn1`
645

====

experiment: Tissue distribution of SHR9146 in mice after oral gavage of 40 mg/kg; format: in vivo, ICR mice; conditions: male, ICR, mouse, plasma, po, 40 mg/kg, male, 1 h, 40 mg/kg oral gavage, Mean (n=3); read-out: SHR9146 concentration in Plasma
assay-metric: concentration at 1 h (ng/mL)
Just the number please, in ng/mL, no unit attached.

In one line, give reported concentration at 1 h of the entry OCCn1cc(-c2ccc(N3CCC([C@H]4c5c(F)cccc5-c5cncn54)CC3)cc2)cn1 [SHR9146] .
9120

====

assay: Plasma pharmacokinetics of SHR9146 in mice (LC-MS/MS, non-compartmental analysis); type: in vivo, ICR mice; conditions: both sexes, ICR, mouse, plasma, po, 20 mg/kg, 20 mg/kg i.g. single dose; all mice (Totol, 3 male + 3 female); plasma; read-out: t1/2 (converted)
assay-metric: half-life (min)
Please respond with the number in min and leave the unit unwritten.

Tell me its half-life given `OCCn1cc(-c2ccc(N3CCC([C@H]4c5c(F)cccc5-c5cncn54)CC3)cc2)cn1` as the entry.
41.9

====

assay: Tissue distribution of SHR9146 in mice after oral gavage of 40 mg/kg; format: in vivo, ICR mice; settings: male, ICR, mouse, spleen, po, 40 mg/kg, male, 6 h, 40 mg/kg oral gavage, Mean (n=3); read-out: SHR9146 concentration in Spleen
assay-metric: concentration at 6 h (ng/g)
Report the figure in ng/g without appending any unit label.

Write down concentration at 6 h measured for item OCCn1cc(-c2ccc(N3CCC([C@H]4c5c(F)cccc5-c5cncn54)CC3)cc2)cn1 [SHR9146]
17

meta.source: paper PMC10410440
